Tested on: UO-31
Assay: NCI tumour cell line growth inhibition, 48 h
The source made the active and inactive calls. Rule as the data show it: active = GI50 up to about 1.1 µM and inactive = higher.
readout: GI50

{"columns": ["smiles.record", "target", "GI50"],
 "data": [
  ["O=C1C(=Cc2ccc(O)cc2)N=C(c2ccccc2)N1n1c(-c2ccccc2)nc2ccccc2c1=O", "UO-31", "> 100 µM (inactive)"],
  ["COc1ccc(OC)c([N+](=O)[O-])c1-c1nc2sccn2c1/C=N/N=C(N)N", "UO-31", "> 100 µM (inactive)"],
  ["C=Cc1c(C)c(O)cc2c1-c1ccc(O)c(C)c1CC2", "UO-31", "14.8 µM (inactive)"]
]}

What value of GI50 has been recorded for this entry: "CC1(C)C(/C=N\O)=[N+]([O-])C(C)(C)N1O"
> 100 µM (inactive)

----------
Tested on: UO-31
Assay: NCI tumour cell line growth inhibition, 48 h
Calls of active or inactive are those of the source. Cut-off read from the data, not from the text of the source: active = GI50 up to about 1.1 µM and inactive = higher.
readout: GI50

{"columns": ["compound", "target", "GI50"],
 "data": [
  ["CCOC(=O)C1=CN=C2C(=O)N(c3ccccc3)N(C)C2(C)C1=N (stereo not drawn)", "UO-31", "> 100 µM (inactive)"],
  ["CC(C)/C=C1\\CCC(CN2CCCC2)C1=O (stereo not drawn)", "UO-31", "18.5 µM (inactive)"]
]}

What value of GI50 has been recorded for this entry: "COc1ccc2c(c1)c1c(n2CCN2CCCCC2)-c2ccccc2CC1"
13.3 µM (inactive)

What value of GI50 has been recorded for this entry: O=C(NN1C(=O)C(Cl)C1c1ccc(O)cc1)c1ccccc1O (stereo not drawn)
15.6 µM (inactive)

What value of GI50 has been recorded for this entry: "CC1(C)OC[C@@H](C[C@H](O)COCc2ccccc2)O1"
> 100 µM (inactive)

What value of GI50 has been recorded for this entry: "C[C@H](N)C(=O)N[C@@H]1[C@H]2C(=C(O)C[C@@H](O)[C@@H]2O)C(=O)O[C@@H]1C"
> 100 µM (inactive)

What value of GI50 has been recorded for this entry: "O=C1C=C(O)c2nc(O)ccc2C1=O"
> 100 µM (inactive)

What value of GI50 has been recorded for this entry: "COc1ccc(CC#C/C=C/C(=O)NCC(C)C)cc1"
> 100 µM (inactive)

What value of GI50 has been recorded for this entry: "C/N=C(N)/N=C(\N)Nc1cc2ccccc2c2ccccc12"
11.9 µM (inactive)

What value of GI50 has been recorded for this entry: "C#C[C@@]1(O)CCCC2=CC(=O)C[C@]21C"
> 100 µM (inactive)

What value of GI50 has been recorded for this entry: CC1[C@@]2(O[C@@H]3C=C4C5CCC6Cc7nc8c(nc7C[C@@]6(C)C5C[C@H](O)[C@@]4(C)[C@]13O)CC1CCc3c(cc4c5c3C(O)C[C@H]5[C@@H](C)C3(O4)OC(C)(C)CC3O)[C@]1(C)C8)O[C@@](C)(CO)C[C@@H]2O (stereo partly drawn)
1.39 µM (inactive)

What value of GI50 has been recorded for this entry: "COc1ccc(-c2nc(N)c(C#N)c3c2CCSc2ccc(C)cc2-3)cc1OC"
4.16 µM (inactive)

What value of GI50 has been recorded for this entry: "O=C(OCCNC(=O)N1CC1)OCCNC(=O)N1CC1"
> 10 µM (inactive)

What value of GI50 has been recorded for this entry: "Oc1cc(-c2ccccc2)nc2cc(Cl)ccc12"
5.06 µM (inactive)

What value of GI50 has been recorded for this entry: O=c1[nH]c(=O)n(C2OC(CO)C(O)C2O)c2ccsc12 (stereo not drawn)
> 100 µM (inactive)

What value of GI50 has been recorded for this entry: Cc1cc2c(cc1-c1cc3c(cc1C)C(C(C)C)=C(O)C(=O)/C3=C\NCC1CCCN3CCCCC13)/C(=C/NCC1CCCN3CCCCC13)C(=O)C(O)=C2C(C)C (stereo not drawn)
3.43 µM (inactive)

What value of GI50 has been recorded for this entry: "C1=C[C@@H]2c3ccc4cnccc4c3NC[C@@H]2C1"
74.3 µM (inactive)

What value of GI50 has been recorded for this entry: COC(=O)C[S+]([O-])c1ccccc1 (stereo not drawn)
4.63 µM (inactive)

----------
Below: a set of entries, each annotated with reported GI50.
Tested on: M14
Test: NCI tumour cell line growth inhibition, 48 h
Where a name gives a salt, the structure may show the parent alone. Calls of active or inactive are those of the source. Cut-off read from the data, not from the text of the source: active = GI50 up to about 1.1 µM and inactive = higher.

{"columns": ["molecule", "target", "readout.value"],
 "data": [
  ["COc1c2c(c3ccccc3c1O)C1C=CC2C1 (stereo unspecified)", "M14", "14.7 µM (inactive)"],
  ["Cc1cc(C)c(C2=NOC(c3ccccc3)(c3cc(=O)n(-c4ccccc4)s3)O2)c(C)c1 (stereo unspecified)", "M14", "27 µM (inactive)"],
  ["NCCS [CYSTEAMINE HYDROCHLORIDE]", "M14", "> 100 µM (inactive)"]
]}

Proceeding to the next molecule to report its GI50.
What value of GI50 has been recorded for this entry: "Cc1nc2ccc(S(=O)(=O)Nc3ccc(Cl)cc3)cc2c(=O)n1NC(=O)CNc1ccc(Cl)cc1"
> 100 µM (inactive)

----------
Below: a set of entries, each annotated with reported GI50.
Test system: A549
Assay: NCI tumour cell line growth inhibition, 48 h
The source made the active and inactive calls. No stated cut-off is given here; in the data, active = GI50 up to about 1.1 µM and inactive = higher.

Look over these answered cases.
{"columns": ["molecule", "GI50"],
 "data": [
  ["COC(=O)/N=[N+](\\[O-])C(c1ccccc1)c1ccccc1", "33.2 µM (inactive)"],
  ["CCN(CC)c1ccc2cc(C(N)=O)c(=N)oc2c1", "37.4 µM (inactive)"]
]}

Proceeding to the next molecule to report its GI50.
Lookup: GI50 / A549 / CCOC(=O)C(NC(=O)CC(C)C)(Nc1ccc(C(F)(F)F)cc1)C(F)(F)F (stereo not drawn)
> 100 µM (inactive)

----------
Tested on: HT-29
Experiment: NCI tumour cell line growth inhibition, 48 h
Calls of active or inactive are those of the source. No stated cut-off is given here; in the data, active = GI50 up to about 1.1 µM and inactive = higher.
Please reply with one of these outcomes: active, inactive

{"columns": ["compound", "class.assignment"],
 "data": [
  ["Cc1cc(O)c2c(c1)CC(O)C1=C2C(=O)c2c(O)ccc(OC3CC(O)C(OC4CC(OC5CCC(O)C(C)O5)C(O)C(C)O4)C(C)O3)c2C1=O (centres undefined)", "inactive"],
  ["CC1(C)C(/C=N\\O)=[N+]([O-])C(C)(C)N1O", "inactive"],
  ["COc1ccc(C(=O)c2sc(Nc3ccc(Cl)cc3)nc2N)cc1", "inactive"]
]}

Hi, sorry to bother you, what did the test record for "CC1=NC(=Cc2ccc(O)cc2)C(=O)N1n1c(-c2ccccc2)nc2ccccc2c1=O" ?
inactive

Hi, sorry to bother you, what did the test record for "C/C(=N\Nc1nc2ccccc2o1)c1ccncn1" ?
active

Hi, sorry to bother you, what did the test record for "CC(C)CS(=O)(=O)/C(=C(\c1ccc(Br)cc1)S(=O)(=O)CC(C)C)c1ccc(Br)cc1" ?
inactive

Hi, sorry to bother you, what did the test record for CC1CC(=O)Nc2nc3ccccc3n21 (centres undefined) ?
inactive

Hi, sorry to bother you, what did the test record for "CC(=O)/N=C1\NC(=O)/C(=C/c2ccccc2Cl)N1C" ?
inactive

Hi, sorry to bother you, what did the test record for "CC(C)(C)OC(=O)N1C/C=C\C(=O)C2(OCCO2)c2ccccc21" ?
inactive

Hi, sorry to bother you, what did the test record for CC[N+]1(C)CCC(O)(c2ccccc2)C(C(=O)c2ccccc2)C1 (centres undefined) ?
inactive

----------
System: CAKI-1
Assay: NCI tumour cell line growth inhibition, 48 h
Calls of active or inactive are those of the source. Rule as the data show it: active = GI50 up to about 1.1 µM and inactive = higher.
Below: a set of entries, each annotated with reported GI50.

Look over these answered cases.
{"columns": ["smiles.record", "GI50"],
 "data": [
  ["COc1ccc2[nH]c3c(c2c1)[C@H](C)C[C@@H]1C(=O)N(c2ccccc2)C(=O)[C@H]31", "33 µM (inactive)"],
  ["COc1cc2c(cc1OCc1ccccc1)NC(=O)[C@@H]1C[C@@H](O)CN1C2=O", "> 100 µM (inactive)"],
  ["CCOC(=O)/C(I)=C/c1cc(OC)c(OC)c(OC)c1", "4.27 µM (inactive)"],
  ["C=Cc1c(C)c(O)cc2c1-c1ccc(O)c(C)c1CC2", "13.9 µM (inactive)"],
  ["O=C(N/N=C/c1ccc([N+](=O)[O-])cc1)c1cccc2nc3ccccc3nc12", "> 100 µM (inactive)"]
]}

What value of GI50 has been recorded for this entry: "O=c1c2ccccc2oc2nccnc12"
> 100 µM (inactive)

What value of GI50 has been recorded for this entry: "CC(=O)Nc1ccc(C(=O)N2N=C(C)/C(=C/c3ccc(O)cc3)C2=O)cc1"
> 100 µM (inactive)

----------
Test system: COLO 205
Test: NCI tumour cell line growth inhibition, 48 h
The source made the active and inactive calls. Cut-off read from the data, not from the text of the source: active = GI50 up to about 1.1 µM and inactive = higher.
Below: a set of entries, each annotated with reported GI50.

Look over these answered cases.
{"columns": ["compound", "readout", "readout.value"],
 "data": [
  ["CCOc1ccc(N(CC(=O)N2CC(=O)Nc3cc(C)c(C)cc32)C(C)=O)cc1", "GI50", "> 100 µM (inactive)"],
  ["O=C(c1ccccc1)[C@H]1Nc2ccc(Cl)cc2[C@H]2c3ccccc3O[C@H]21", "GI50", "18.7 µM (inactive)"],
  ["C=CC(OC(=O)C(C)C)c1ccc(OC(=O)C(C)C)cc1 (centres undefined)", "GI50", "8.87 µM (inactive)"]
]}

Proceeding to the next compound to report its GI50.
What value of GI50 has been recorded for this entry: "CCn1c(SCC(=O)NNC(=S)Nc2ccc(Cl)cc2)nc2ccccc2c1=O"
70 µM (inactive)
